Reference source: PubChem BioAssay AID463173

- System: DeltatarO mutant
- Method Summary: S. aureus survival, RN4220 and DeltatarO strains – OD600, teichoic acid synthesis inhibitors, primary screen (AID 463173)
- Condition: S. aureus RN4220 wild type/DeltatarO growth, OD600, 18 h, stronger effect = lower value, screened at 18.75 µg/mL (by protocol)
In all, about 52,000 compounds went through this assay and about 4,300 (8.3%) were called active. The list comes from a sample in which actives are over-represented; it also holds close analogues and randomly drawn compounds.
Experimental Readout: survival (%)
Just the number in %, nothing appended.

CCOC(=O)c1cc2c(=O)n3ccccc3nc2n(CC2CCCO2)c1=NC(=O)c1ccc(C(C)(C)C)cc1 (stereo not given)    59

Could you share which survival value was measured for "CCn1cc2c(n1)-c1c(oc(C(=O)Nc3cccc(C)c3C)c1C)CC2" ?
95

Please do the same for "Cc1ccc(Nc2c(-c3ccc(C)cc3)nc3ccc(C)cn23)cc1" as well.
117

Again, but for "Cc1cccc(C)c1NC(=O)c1oc2c(c1C)-c1nn(Cc3ccccc3)cc1CC2"
23

"Cc1cccc(CNC(=O)c2oc3c(c2C)-c2nn(Cc4cccc(Cl)c4)cc2CC3)c1" ?
97

----------
- Tested on: DeltatarO mutant
- Method Summary: S. aureus survival, RN4220 and DeltatarO strains – OD600, teichoic acid synthesis inhibitors, primary screen (AID 463173)
- Condition: S. aureus RN4220 wild type/DeltatarO growth, OD600, 18 h, stronger effect = lower value, screened at 18.75 µg/mL (by protocol)
Out of some 52,000 compounds screened, about 4,300 (8.3%) were called active. For the sample, actives were picked, then their nearest neighbours and some compounds at random.
molecules and their reported survival
Please respond with the number in % and leave the unit unwritten.

CC1(C)CC(NC(=O)CCCC(=O)O)CC(C)(C)N1    81
COc1cc(C2c3c(-c4cc(C)ccc4O)n[nH]c3C(=O)N2Cc2ccco2)cc(OC)c1OC (stereo not given)    66
COc1cc(C2c3c(-c4cc(C)ccc4O)n[nH]c3C(=O)N2Cc2cccnc2)cc(OC)c1OC (stereo not given)    83

What value of survival has been reported for the following molecule? "NC(=O)C1CCN(S(=O)(=O)c2ccc(N3CCCCS3(=O)=O)cc2)CC1"
116

Next up: Cc1ccc(C2c3c(-c4cc(C)ccc4O)n[nH]c3C(=O)N2Cc2ccco2)cc1 (stereo not given)
1

----------
- Tested on: DeltatarO mutant
- Method Summary: S. aureus survival, RN4220 and DeltatarO strains – OD600, teichoic acid synthesis inhibitors, primary screen (AID 463173)
- Condition: S. aureus RN4220 wild type/DeltatarO growth, OD600, 18 h, screened at 18.75 µg/mL (by protocol)
Out of some 52,000 compounds screened, about 4,300 (8.3%) were called active. Rule as the data show it: active = survival mostly below about 52% (no sharp cut-off); inactive = mostly above about 56%. For the sample, actives were picked, then their nearest neighbours and some compounds at random.
Tick one outcome: t (active), f (inactive)

Cc1ccc(C)c(N2CCN(C(=O)Cn3cnc4sc(C)c(S(=O)(=O)N5CCN(c6ncccn6)CC5)c4c3=O)CC2)c1    f
COc1ccc2c(c1)CCc1c(C(=O)Nc3ccc(OC)cc3OC)noc1-2    f
Cc1nc(N2CCCC2)ncc1C(=O)Nc1ccc(F)cc1F    f

Hi, sorry to bother you, what did the test record for "COc1ccc(CCNC(=O)c2ccc3c(c2)sc2nc(-c4ccccc4)cn23)cc1OC" ?
t

Now give it for "COc1cccc(NC(=O)CN2C(=O)c3cccnc3Oc3ccc(Cl)cc32)c1" too.
f

----------
- Test system: DeltatarO mutant
- Method Summary: S. aureus survival, RN4220 and DeltatarO strains – OD600, teichoic acid synthesis inhibitors, primary screen (AID 463173)
- Condition: S. aureus RN4220 wild type/DeltatarO growth, OD600, 18 h, stronger effect = lower value, screened at 18.75 µg/mL (by protocol)
About 4,300 (8.3%) of roughly 52,000 compounds were called active. The full list was thinned out, with actives kept by preference.
Measured survival of individual entries
# number only, unit % dropped from output

Recorded survival, per entry:
COc1cccc(C(=O)N(Cc2cccnc2)c2nc3c(OC)ccc(C)c3s2)c1OC    73
CCN1C(=O)C2(C(C#N)=C(N)SC(N)=C2C#N)c2ccccc21    2
COc1ccc(CCNC(=O)c2ccc(Cn3c(=O)c4ccccc4n(CC(=O)C(C)(C)C)c3=O)cc2)cc1OC    86

DeltatarO mutant / survival / "Cc1cccc(C(=O)Nc2nnc(S(=O)(=O)N3CCC(C)CC3)s2)c1" : value?
35

Ok, now "CC1CCN(S(=O)(=O)c2nnc(NC(=O)c3cccc(Cl)c3)s2)CC1"
23

----------
- Tested on: DeltatarO mutant
- Method Summary: S. aureus survival, RN4220 and DeltatarO strains – OD600, teichoic acid synthesis inhibitors, primary screen (AID 463173)
- Condition: S. aureus RN4220 wild type/DeltatarO growth, OD600, 18 h, stronger effect = lower value, screened at 18.75 µg/mL (by protocol)
The campaign covered roughly 52,000 compounds. About 4,300 (8.3%) were called active. The sample as a whole holds a higher share of actives than the screen did.
Experimental Readout: survival (%)
# unit: % | format: bare number

// known answers, use as guide
CC1CCC(NC(=O)CCc2cn(Cc3ccccc3Cl)c3ccccc23)CC1 (stereo not given)    51
CC(=O)N1CCCc2cc(S(=O)(=O)NCc3ccccc3Cl)ccc21    112
O=C1CC(c2ccccc2)Cc2[nH]c(=O)c(-c3nc(-c4ccc(F)cc4)cs3)cc21 (stereo not given)    154
COc1cc(OC)c(NC(=O)Cn2cnc3sc(C)c(S(=O)(=O)N4CCN(C)CC4)c3c2=O)cc1Cl    157
CC(=O)Nc1nonc1NC(C)=O    87
CC(=O)Oc1ccc(Nc2nc3nonc3nc2Nc2ccccc2)cc1    83
CCOC(=O)c1c(C)c(-c2ccccc2)n(CC(=O)Nc2cc(C)cc(C)c2)c1C    80
CCOC(=O)c1cccc(Nc2cc(-c3ccccc3)ncn2)c1    15

Record request: survival value, item Cc1ccc(Cn2cc(CCC(=O)NC3CCC(C)CC3)c3ccccc32)cc1 (stereo not given)
74

Please do the same for "CCN(CCCNC(=O)c1cc2c(=O)n(CC)c3ccccc3c2s1)Cc1ccccc1" as well.
101

----------
- Test system: DeltatarO mutant
- Method Summary: S. aureus survival, RN4220 and DeltatarO strains – OD600, teichoic acid synthesis inhibitors, primary screen (AID 463173)
- Condition: S. aureus RN4220 wild type/DeltatarO growth, OD600, 18 h, stronger effect = lower value, screened at 18.75 µg/mL (by protocol)
Screen size: about 52,000 compounds; about 4,300 (8.3%) were called active. This is one part of a sample in which actives are shown more often than they occur.
Reported survival values for the following compounds.

CC(=O)c1cccc(Nc2cc(C)nc3nc(Cc4ccccc4)nn23)c1    62% (inactive)
O=C1CN(C(=O)Cc2ccc(F)cc2)C(c2ccccc2)c2cc(Br)ccc2N1 (stereo not given)    58% (inactive)
CCOC(=O)c1ccc(N2C(=O)c3[nH]nc(-c4ccc(C)cc4)c3C2c2cccc(F)c2)cc1 (stereo not given)    117% (inactive)
CCc1nc2nc(C)cc(Nc3cccc(C)c3C)n2n1    82% (inactive)
CCOC(=O)c1ccc(N2C(=O)c3n[nH]c(-c4cccs4)c3C2c2ccc(CC)cc2)cc1 (stereo not given)    99% (inactive)

Query compound follows.
For the compound shown here, "O=C(Cn1c(=O)ccc2cc(S(=O)(=O)N3CCCC3)ccc21)NCc1ccc(Cl)cc1" , give the reported survival.
102% (inactive)

----------
Below, each entry is listed with its recorded survival.
- System: DeltatarO mutant
- Method Summary: S. aureus survival, RN4220 and DeltatarO strains – OD600, teichoic acid synthesis inhibitors, primary screen (AID 463173)
- Condition: S. aureus RN4220 wild type/DeltatarO growth, OD600, 18 h, stronger effect = lower value, screened at 18.75 µg/mL (by protocol)
About 4,300 (8.3%) of roughly 52,000 compounds were called active. Many of the other results were omitted from the sample, so actives are more common in it than they were.

Use these answered entries as a reference point.
N#Cc1ccc(NC(=O)CNCC2CCCCC2)cc1    100% (inactive)
Cc1ccc(Cl)cc1N1CCN(C(=O)Cn2ncc3c4ccccc4n(C)c3c2=O)CC1    54% (inactive)
Cc1cc(C)nc(SCC(=O)Oc2ccc3oc(=O)cc(C)c3c2)n1    95% (inactive)
CN1CCN(C(CNC(=O)C(=O)Nc2cccc(Cl)c2)c2ccc3c(c2)OCO3)CC1 (stereo unspecified)    86% (inactive)
C=CCNc1nc(-c2ccccc2)cs1    97% (inactive)

// lookup survival for "Cc1ccc(CCNC(=O)c2ccc3c(c2)nc2n3CCOC2)cc1"
86% (inactive)

Can you check "COc1ccc(-c2cc(=O)c3cc(OCC(=O)OC(C)C)ccc3o2)cc1" next?
124% (inactive)

Another molecule to look at: "COC(=O)COc1ccc2oc(-c3ccc(OC)cc3)cc(=O)c2c1"
36% (active)

And what about the molecule "Cc1ccc(NC(=O)CSc2cc(=O)n(C)c3ccc(Cl)cc23)c(Br)c1" ?
79% (inactive)

// next record "CCCC(=O)Oc1ccc2ccc(=O)oc2c1"
89% (inactive)

Can you check "CC(C)Cc1nn2c(=O)cc(COC(=O)c3ccccc3NC(=O)C3CCCCC3)nc2s1" next?
81% (inactive)
